The origin of these recorded values is PubChem BioAssay AID1963841.

- Tested on: 439559-082-T-J2-PDC spheroid viability
- assayDetails: Anticancer human tumor 439559-082-T-J2-PDC patient-derived colon adenocarcinoma cell line growth inhibition [POLQ]
- experimentalContext: second compound 0.1 µM; first compound 3.16 µM; stronger effect = lower value; spheroids with HUVEC and MSC
observedProperty: viability, T/C (%)

molecule="C#Cc1c(F)ccc2cc(O)cc(-c3ncc4c(N5CC6CCC(C5)N6)nc(OCC56CCCN5CC(F)C6)nc4c3F)c12 (stereo not given) + COC1C(OC(N)=O)C(O)C(Oc2ccc3c(O)c(NC(=O)c4ccc(O)c(CC=C(C)C)c4)c(=O)oc3c2C)OC1(C)C" reportedvalue=59.7
molecule="CC1COCCN1c1cc(-c2ccnn2C)c2ccnc(-c3ccn[nH]3)c2n1 (stereo not given) + COC1C(OC(N)=O)C(O)C(Oc2ccc3c(O)c(NC(=O)c4ccc(O)c(CC=C(C)C)c4)c(=O)oc3c2C)OC1(C)C" reportedvalue=27
molecule="C=CC(=O)N1CCN(c2nc(=O)n(-c3c(C)ccnc3C(C)C)c3nc(-c4c(O)cccc4F)c(F)cc23)C(C)C1 (stereo not given) + COC1C(OC(N)=O)C(O)C(Oc2ccc3c(O)c(NC(=O)c4ccc(O)c(CC=C(C)C)c4)c(=O)oc3c2C)OC1(C)C" reportedvalue=106
molecule="COc1cccc2c1C(=O)c1c(O)c3c(c(O)c1C2=O)CC(O)(C(=O)CO)CC3OC1CC(N)C(O)C(C)O1 (stereo not given) + Nc1ccc(C#CCN(C(=O)Cc2ncc(C(F)(F)F)cc2C(F)(F)F)c2ccc(F)cc2)nn1" reportedvalue=58.9
molecule="O=C(c1cc(Cc2n[nH]c(=O)c3ccccc23)ccc1F)N1CCN(C(=O)C2CC2)CC1 + COC1C(OC(N)=O)C(O)C(Oc2ccc3c(O)c(NC(=O)c4ccc(O)c(CC=C(C)C)c4)c(=O)oc3c2C)OC1(C)C" reportedvalue=105
molecule="CCc1cc2c(N3CCc4c(cc(Cn5ccnc5)cc4-c4cn(C)nc4C(F)(F)F)C3=O)ccnc2c(OC)n1 + Cc1cccc(N(C)C(=O)C2C(O)CCN2c2nc(C)cc(C(F)(F)F)c2C#N)c1" reportedvalue=95.2
molecule="CCCS(=O)(=O)Nc1ccc(F)c(C(=O)c2c[nH]c3ncc(-c4ccc(Cl)cc4)cc23)c1F + Nc1ccc(C#CCN(C(=O)Cc2ncc(C(F)(F)F)cc2C(F)(F)F)c2ccc(F)cc2)nn1" reportedvalue=82
molecule="CC1COCCN1c1cc(C2(O)CC3CCC(C2)O3)c2cnn(-c3ccn[nH]3)c2n1 (stereo not given) + COC1C(OC(N)=O)C(O)C(Oc2ccc3c(O)c(NC(=O)c4ccc(O)c(CC=C(C)C)c4)c(=O)oc3c2C)OC1(C)C" reportedvalue=46.9
molecule="COc1cc(C2c3cc4c(cc3C(OC3OC5COC(C)OC5C(O)C3O)C3COC(=O)C23)OCO4)cc(OC)c1O (stereo not given) + Cc1cccc(N(C)C(=O)C2C(O)CCN2c2nc(C)cc(C(F)(F)F)c2C#N)c1" reportedvalue=83.4
molecule="O=c1[nH]cc(F)c(=O)[nH]1 + COC1C(OC(N)=O)C(O)C(Oc2ccc3c(O)c(NC(=O)c4ccc(O)c(CC=C(C)C)c4)c(=O)oc3c2C)OC1(C)C" reportedvalue=69.8

---

- Tested on: 439559-082-T-J2-PDC spheroid viability
- assayDetails: Anticancer human tumor 439559-082-T-J2-PDC cell line growth inhibition [POLQ];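 note: spheroids exposed to compounds for seven days before readout; 100% = DMSO vehicle control viability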
- experimentalContext: second compound 0.1 µM; first compound 0.0316 µM; stronger effect = lower value; spheroids with HUVEC and MSC
observedProperty: viability, T/C (%)

molecule="C#Cc1c(F)ccc2cc(O)cc(-c3ncc4c(N5CC6CCC(C5)N6)nc(OCC56CCCN5CC(F)C6)nc4c3F)c12 (stereo not given) + Cc1cccc(N(C)C(=O)C2C(O)CCN2c2nc(C)cc(C(F)(F)F)c2C#N)c1" reportedvalue=100
molecule="O=C(Nc1ccc(O)c(NS(=O)(=O)c2ccc(F)cc2)c1)c1ccc(-c2ccccc2)cc1 + Nc1ccc(C#CCN(C(=O)Cc2ncc(C(F)(F)F)cc2C(F)(F)F)c2ccc(F)cc2)nn1" reportedvalue=99
molecule="O=C(c1cc(Cc2n[nH]c(=O)c3ccccc23)ccc1F)N1CCN(C(=O)C2CC2)CC1 + COC1C(OC(N)=O)C(O)C(Oc2ccc3c(O)c(NC(=O)c4ccc(O)c(CC=C(C)C)c4)c(=O)oc3c2C)OC1(C)C" reportedvalue=105
molecule="CCc1c2c(nc3ccc(O)cc13)-c1cc3c(c(=O)n1C2)COC(=O)[C@]3(O)CC + COC1C(OC(N)=O)C(O)C(Oc2ccc3c(O)c(NC(=O)c4ccc(O)c(CC=C(C)C)c4)c(=O)oc3c2C)OC1(C)C" reportedvalue=70.7
molecule="CCc1cc2c(N3CCc4c(cc(Cn5ccnc5)cc4-c4cn(C)nc4C(F)(F)F)C3=O)cc(C)nc2c(OC)n1 + Cc1cccc(N(C)C(=O)C2C(O)CCN2c2nc(C)cc(C(F)(F)F)c2C#N)c1" reportedvalue=101
molecule="CC1COCCN1c1cc(C2(O)CC3CCC(C2)O3)c2cnn(-c3ccn[nH]3)c2n1 (stereo not given) + Nc1ccc(C#CCN(C(=O)Cc2ncc(C(F)(F)F)cc2C(F)(F)F)c2ccc(F)cc2)nn1" reportedvalue=102
molecule="COc1cc(C2c3cc4c(cc3C(OC3OC5COC(C)OC5C(O)C3O)C3COC(=O)C23)OCO4)cc(OC)c1O (stereo not given) + COC1C(OC(N)=O)C(O)C(Oc2ccc3c(O)c(NC(=O)c4ccc(O)c(CC=C(C)C)c4)c(=O)oc3c2C)OC1(C)C" reportedvalue=108
molecule="Nc1ccn(C2OC(CO)C(O)C2(F)F)c(=O)n1 (stereo not given) + Cc1cccc(N(C)C(=O)C2C(O)CCN2c2nc(C)cc(C(F)(F)F)c2C#N)c1" reportedvalue=85.4
molecule="COc1cc2cc(C(=O)CCC(=O)O)sc2cc1OC + COC1C(OC(N)=O)C(O)C(Oc2ccc3c(O)c(NC(=O)c4ccc(O)c(CC=C(C)C)c4)c(=O)oc3c2C)OC1(C)C" reportedvalue=94.1
molecule="O=C(c1cc(Cc2n[nH]c(=O)c3ccccc23)ccc1F)N1CCN(C(=O)C2CC2)CC1 + Cc1cccc(N(C)C(=O)C2C(O)CCN2c2nc(C)cc(C(F)(F)F)c2C#N)c1" reportedvalue=103
